For each record, write down the corresponding viability, T/C.
Tested on: 873145-292-R-J1-PDC complex spheroid viability
Experiment: Anticancer human tumor 873145-292-R-J1-PDC patient-derived renal clear cell carcinoma cell line growth inhibition [POLQ]
Conditions: second compound 3.16 µM; first compound 0.0316 µM; active compounds read low
Numbers only, in %.

Worked set:
compound	property.name	result.units	observed.measurement
CCc1cc2c(N3CCc4c(cc(Cn5ccnc5)cc4-c4cn(C)nc4C(F)(F)F)C3=O)ccnc2c(OC)n1 + COC1C(OC(N)=O)C(O)C(Oc2ccc3c(O)c(NC(=O)c4ccc(O)c(CC=C(C)C)c4)c(=O)oc3c2C)OC1(C)C	viability, T/C	%	103
CC1COCCN1c1cc(C2(O)CC3CCC(C2)O3)c2cnn(-c3ccn[nH]3)c2n1 (stereo not given) + COC1C(OC(N)=O)C(O)C(Oc2ccc3c(O)c(NC(=O)c4ccc(O)c(CC=C(C)C)c4)c(=O)oc3c2C)OC1(C)C	viability, T/C	%	93.8
CCc1cc2c(N3CCc4c(cc(Cn5ccnc5)cc4-c4cn(C)nc4C(F)(F)F)C3=O)cc(C)nc2c(OC)n1 + Cc1cccc(N(C)C(=O)C2C(O)CCN2c2nc(C)cc(C(F)(F)F)c2C#N)c1	viability, T/C	%	90.7
COc1cccc(OCCCN)c1-c1cc(Nc2cnc(C#N)cn2)n[nH]1 + Nc1ccc(C#CCN(C(=O)Cc2ncc(C(F)(F)F)cc2C(F)(F)F)c2ccc(F)cc2)nn1	viability, T/C	%	68.9

Now for the compound whose viability, T/C we want.
viability, T/C for 873145-292-R-J1-PDC complex spheroid viability with input CC[C@@]1(O)C(=O)OCc2c1cc1n(c2=O)Cc2cc3c(CN(C)C)c(O)ccc3nc2-1 + Nc1ccc(C#CCN(C(=O)Cc2ncc(C(F)(F)F)cc2C(F)(F)F)c2ccc(F)cc2)nn1 equals 93.5

---

Test system: 873145-292-R-J1-PDC complex spheroid viability
Assay: Anticancer human tumor 873145-292-R-J1-PDC cell line growth inhibition [POLQ];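 further: luminescence signal used as surrogate for viable cell content; spheroids exposed to compounds for 7 days before viability readout; 100% = DMSO vehicle control viability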
Conditions: second compound 10 µM; first compound 1 µM; active compounds read low
Give measured viability, T/C for each item. Keep answers brief.

Some entries whose results are on file:
molecule	viability, T/C
O=c1[nH]cc(F)c(=O)[nH]1 + COC1C(OC(N)=O)C(O)C(Oc2ccc3c(O)c(NC(=O)c4ccc(O)c(CC=C(C)C)c4)c(=O)oc3c2C)OC1(C)C	96.3%
C#Cc1c(F)ccc2cc(O)cc(-c3ncc4c(N5CC6CCC(C5)N6)nc(OCC56CCCN5CC(F)C6)nc4c3F)c12 (stereo unspecified) + Cc1cccc(N(C)C(=O)C2C(O)CCN2c2nc(C)cc(C(F)(F)F)c2C#N)c1	94.4%
CC1COCCN1c1cc(C2(O)CC3CCC(C2)O3)c2cnn(-c3ccn[nH]3)c2n1 (stereo unspecified) + COC1C(OC(N)=O)C(O)C(Oc2ccc3c(O)c(NC(=O)c4ccc(O)c(CC=C(C)C)c4)c(=O)oc3c2C)OC1(C)C	45.6%
O=c1[nH]cc(F)c(=O)[nH]1 + Cc1cccc(N(C)C(=O)C2C(O)CCN2c2nc(C)cc(C(F)(F)F)c2C#N)c1	98.4%

Please state, for each entry, its recorded viability, T/C.
1. COc1ccc([C@@H](O)c2cc(-c3ncnc4cc(N5CCOCC5)ccc34)c(F)cc2Cl)nn1 + Cc1cccc(N(C)C(=O)C2C(O)CCN2c2nc(C)cc(C(F)(F)F)c2C#N)c1
2. O=C(Nc1ccc(O)c(NS(=O)(=O)c2ccc(F)cc2)c1)c1ccc(-c2ccccc2)cc1 + Nc1ccc(C#CCN(C(=O)Cc2ncc(C(F)(F)F)cc2C(F)(F)F)c2ccc(F)cc2)nn1
3. CCc1c2c(nc3ccc(O)cc13)-c1cc3c(c(=O)n1C2)COC(=O)[C@]3(O)CC + COC1C(OC(N)=O)C(O)C(Oc2ccc3c(O)c(NC(=O)c4ccc(O)c(CC=C(C)C)c4)c(=O)oc3c2C)OC1(C)C
4. CCc1cc2c(N3CCc4c(cc(Cn5ccnc5)cc4-c4cn(C)nc4C(F)(F)F)C3=O)cc(C)nc2c(OC)n1 + Nc1ccc(C#CCN(C(=O)Cc2ncc(C(F)(F)F)cc2C(F)(F)F)c2ccc(F)cc2)nn1
5. CC1COCCN1c1cc(-c2ccnn2C)c2ccnc(-c3ccn[nH]3)c2n1 (stereo unspecified) + Cc1cccc(N(C)C(=O)C2C(O)CCN2c2nc(C)cc(C(F)(F)F)c2C#N)c1

Marked response:
["71.2%", "117%", "26.2%", "97.3%", "46.5%"]

Dear reader, for each entry below, please note its viability, T/C.
1. COc1cc(C2c3cc4c(cc3C(OC3OC5COC(C)OC5C(O)C3O)C3COC(=O)C23)OCO4)cc(OC)c1O (stereo unspecified) + COC1C(OC(N)=O)C(O)C(Oc2ccc3c(O)c(NC(=O)c4ccc(O)c(CC=C(C)C)c4)c(=O)oc3c2C)OC1(C)C
2. CC(C)n1c(=O)n(C)c2cnc3cc(F)c(-c4ccc(OCCCN5CCCCC5)nc4)cc3c21 + Nc1ccc(C#CCN(C(=O)Cc2ncc(C(F)(F)F)cc2C(F)(F)F)c2ccc(F)cc2)nn1

Marked response:
1: 94.5%; 2: 107%
